Tested on: Toxoplasma gondii
MEASUREMENT DESCRIPTION: Antiparasitic activity against Toxoplasma gondii RH infected in human HFF cells
Assay type: functional, organism-based
MEASURED QUANTITY: IC50 (nM)
Answers are plain numbers, in nM.

Consider the reported IC50 for these compounds:
COMPOUND	IC50 [nM]
Cc1[nH]c2c(c(=O)c1-c1ccc(Oc3ccc(OC(F)(F)F)cc3)cc1)CCCC2	0.12
C/C=C/C1=C(O)C(=O)c2ccccc2C1=O	3010
O=C1C2=C(C(=O)c3ccccc31)[C@H]1Oc3ccccc3[C@H]1CO2	2500
CCCCCCCCCCCCc1c(C)c(=O)c2ccccc2n1O	0.4
C[C@@H]1CC[C@H]2[C@@H](C)C(=O)O[C@@H]3O[C@@]4(C)CC[C@@H]1[C@]32OO4	1700
Cc1[nH]c2cc(F)cc(F)c2c(=O)c1-c1ccc(Oc2ccc(OC(F)(F)F)cc2)cc1	5

Req: Return IC50 measured with Toxoplasma gondii given this compound: CCCCCCCCCCCCc1c(C)n(O)c2ccccc2c1=O
Resp: 0.8

* * *

For each record, write down the corresponding IC50.
MEASUREMENT DESCRIPTION: Cytotoxicity against African green monkey Vero cells assessed as reduction in cell viability by MTT assay
Format: toxicity, cell-based
TEST CONTEXT: African green monkey (Chlorocebus sabaeus)
Give bare numbers, in µg/mL.

Record excerpt, results attached:
COMPOUND	IC50, µg/mL
C=CCSSSC	66
COC(=O)/C=C(\C)CCC=C(C)C	9
C=CCSSSCC=C [ALLITRIDIN]	28
CC(C)=CCC/C(C)=C/C=O [CITRAL]	9
C=CCSSCC=C [DIALLYLDISULFIDE]	66.9

# input for lookup
Req: Reported IC50 for CC1=CC[C@H]2[C@H]3[C@@H]1[C@]2(C)CC[C@H]3C(C)C : what is it?
Resp: 9.94

* * *

I'd be grateful if you could share measured IC50 for these entries.
Test system: Toxoplasma gondii
MEASUREMENT DESCRIPTION: Antiparasitic activity against Toxoplasma gondii
Type: functional, organism-based
Answers are plain numbers, in µg/mL.

COMPOUND	IC50 [µg/mL]
COc1cc(C=O)ccc1O [VANILLIN]	645

// next item, IC50 requested
Req: What is its IC50 for Toxoplasma gondii? Entry: CC(C)=CCC/C(C)=C/CO [GERANIOL]
Resp: 4

* * *

System: Toxoplasma gondii
MEASUREMENT DESCRIPTION: Antiparasitic activity against Toxoplasma gondii RH infected in human HFF cells
Format: functional, organism-based
We label by threshold. Values of IC50 strictly beneath 10 µg/mL are Y. Values of 10 µg/mL and up are N.

Please review the following examples before continuing.
MOLECULE	ASSIGNED CLASS
Fc1ccc(-c2csc(N/N=C/C3CC3)n2)cc1	N
Oc1ccccc1	Y
C/C(=N\Nc1nc(-c2ccc([N+](=O)[O-])cc2)cs1)c1ccc(Nc2nc(N)nc(N)n2)cc1	N
C=CC(C)(O)CCC=C(C)C (stereo unspecified)	Y

Now examine the next entry.
Req: Regarding C=C(C)C1CC=C(C)C(=O)C1 (stereo unspecified) , kindly confirm whether its IC50 is beneath 10 µg/mL.
Resp: N

* * *

Tested on: Toxoplasma gondii
MEASUREMENT DESCRIPTION: Antiparasitic activity against Toxoplasma gondii RH infected in human HFF cells
Assay type: functional, organism-based
Answer each item with its documented IC50.

COMPOUND	IC50
CC(C)=CCC1=C(O)C(=O)c2ccccc2C1=O	0.4 µg/mL
CC(C)=CCC/C(C)=C\C=O	24 µg/mL
COC(=O)C1C(C)=CCCC1(C)C (stereo unspecified)	242 µg/mL
Cc1nc[nH]c1-c1nnc(Nc2ccc(I)cc2)s1	4.76 µg/mL
C=C(C)C1CC=C(C)CC1 (stereo unspecified)	241 µg/mL

With those in mind, consider the next compound.
Req: Please report the recorded IC50 for CC1=CCC(C(C)(C)O)CC1 (stereo unspecified) .
Resp: 4.4 µg/mL
